Value source: the supplement of paper PMC10307832

# Test system: LCLC-103H
# experiment.summary: relative viability (nuclei count vs DMSO), 5 days (fraction); higher = more cells survive
# test.conditions: first compound 0.2 µM

molecule | relative viability
CN1CCN(CCOc2cc(OC3CCOCC3)c3c(Nc4c(Cl)ccc5c4OCO5)ncnc3c2)CC1 [Saracatinib] + Cc1cc(Nc2cc(N3CCN(C)CC3)nc(Sc3ccc(NC(=O)C4CC4)cc3)n2)n[nH]1 [Tozasertib] (partner 0.1 µM) | 0.465
CN1CCN(CCOc2cc(OC3CCOCC3)c3c(Nc4c(Cl)ccc5c4OCO5)ncnc3c2)CC1 [Saracatinib] + CCNC(=O)c1noc(-c2cc(C(C)C)c(O)cc2O)c1-c1ccc(CN2CCOCC2)cc1 [Luminespib] (partner 0.01 µM) | 0.902
CCNC(=O)c1noc(-c2cc(C(C)C)c(O)cc2O)c1-c1ccc(CN2CCOCC2)cc1 [Luminespib] + Cc1nc(NC(=O)N2CCC[C@H]2C(N)=O)sc1-c1ccnc(C(C)(C)C(F)(F)F)c1 [Alpelisib] (partner 2 µM) | 1
CN1CCN(CCOc2cc(OC3CCOCC3)c3c(Nc4c(Cl)ccc5c4OCO5)ncnc3c2)CC1 [Saracatinib] + Cc1nc(Nc2ncc(C(=O)Nc3c(C)cccc3Cl)s2)cc(N2CCN(CCO)CC2)n1 [Dasatinib] (partner 0.075 µM) | 0.496
